# study_system: PKM2 (Homo sapiens, UniProt P14618)
# Construct: purchased Sigma Chemical Co. (Saint Louis, MO, USA)
# Sequence (P14618 whole entry): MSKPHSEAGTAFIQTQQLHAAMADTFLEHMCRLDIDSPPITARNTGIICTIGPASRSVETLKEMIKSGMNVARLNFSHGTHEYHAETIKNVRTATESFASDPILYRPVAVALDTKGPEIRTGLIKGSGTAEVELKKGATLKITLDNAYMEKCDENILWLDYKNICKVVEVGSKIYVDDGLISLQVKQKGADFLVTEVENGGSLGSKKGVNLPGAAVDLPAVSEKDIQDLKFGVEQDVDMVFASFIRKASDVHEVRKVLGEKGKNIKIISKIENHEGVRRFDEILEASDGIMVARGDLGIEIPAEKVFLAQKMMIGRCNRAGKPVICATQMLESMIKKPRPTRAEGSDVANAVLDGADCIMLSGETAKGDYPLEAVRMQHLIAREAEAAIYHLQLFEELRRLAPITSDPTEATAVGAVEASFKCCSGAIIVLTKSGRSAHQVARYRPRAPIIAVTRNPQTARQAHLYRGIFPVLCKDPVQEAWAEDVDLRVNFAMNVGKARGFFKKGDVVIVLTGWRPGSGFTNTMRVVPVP
# assay_explanation: PKM2 kinetic studies, Lineweaver–Burk graphs (Ki and inhibition type)
# Format: biochemical
# experimental_setup: Lineweaver–Burk graphs
outcome_measure: The Type of Inhibition for Substrate (FEP)

Example compounds with recorded The Type of Inhibition for Substrate (FEP):
O=c1oc2c(O)c(O)cc3c(=O)oc4c(O)c(O)cc1c4c23; Competitive
COc1cc(C2Oc3cc([C@H]4Oc5cc(O)cc(O)c5C(=O)[C@@H]4O)ccc3OC2CO)ccc1O (some centres unmarked); Competitive
COc1cc(/C=C/C(O)=C/C(=O)/C=C/c2ccc(O)cc2)ccc1O; Competitive
COc1cc(/C=C/C(=O)CC(=O)/C=C/c2ccc(O)c(OC)c2)ccc1O; Non-competitive

Please indicate The Type of Inhibition for Substrate (FEP) recorded for O=C(/C=C/c1ccc(O)cc1)CC(=O)/C=C/c1ccc(O)cc1
Non-competitive

Where these numbers come from: paper PMC9609560
